Tested on: Wild type
Test: S. aureus survival, RN4220 and DeltatarO strains – OD600, teichoic acid synthesis inhibitors, primary screen (AID 463173)
Settings: S. aureus RN4220 wild type/DeltatarO growth, OD600, 18 h, screened at 18.75 µg/mL (by protocol)
The campaign covered roughly 52,000 compounds. About 1,700 (3.3%) were called active. No stated cut-off is given here; in the data, active means survival mostly below about 52% (no sharp cut-off); inactive means mostly above about 56%. What follows is part of a selection rich in actives, with near analogues and random picks from the rest.
Possible outcomes: active, inactive

>  <compound>
COc1ccc(Nc2cc(C(=O)NCc3ccccc3OC)c3ccccc3n2)cc1

>  <category.label>
active

$$$$
>  <compound>
Cc1ccc(Cl)cc1N1CCN(C(=O)c2cc3c(=O)oc4ccccc4c3s2)CC1

>  <category.label>
inactive

$$$$
>  <compound>
CCc1ccc(OCCn2c(C3CC(=O)N(Cc4ccc(F)cc4)C3)nc3ccccc32)cc1 (stereo not given)

>  <category.label>
active

$$$$
>  <compound>
COc1ccc(Nc2cc(C(=O)NCc3cccs3)c3ccccc3n2)cc1

>  <category.label>
inactive

$$$$
>  <compound>
COc1ccc(Nc2cc(C(=O)NCc3ccccc3)c3ccccc3n2)cc1

>  <category.label>
inactive

$$$$
